# Lookup of reported IC50 keyed by entry
# Target: IRAK4 (Homo sapiens (Human))
# Sequence (Q9NWZ3 whole entry, species assumed): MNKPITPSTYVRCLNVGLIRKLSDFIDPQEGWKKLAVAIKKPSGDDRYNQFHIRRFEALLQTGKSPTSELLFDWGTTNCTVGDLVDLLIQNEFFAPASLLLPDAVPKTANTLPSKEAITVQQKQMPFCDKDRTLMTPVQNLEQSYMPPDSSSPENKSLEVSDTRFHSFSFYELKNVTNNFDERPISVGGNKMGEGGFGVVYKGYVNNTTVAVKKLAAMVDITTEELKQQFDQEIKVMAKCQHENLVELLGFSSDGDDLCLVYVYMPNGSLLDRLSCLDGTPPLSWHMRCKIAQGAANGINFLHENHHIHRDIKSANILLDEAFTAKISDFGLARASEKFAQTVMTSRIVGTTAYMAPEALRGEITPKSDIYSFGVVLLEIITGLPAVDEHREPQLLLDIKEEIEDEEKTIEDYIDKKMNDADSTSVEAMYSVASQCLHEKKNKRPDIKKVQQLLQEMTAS
# Test Summary: IRAK4 Inhibition Assay
# Type: biochemical
# Measurement Conditions: ATP 500 μM; IRAK4 0.6 nM; read-out: IRAK4 IC50
Remember to quote the unit after the number.

## Input GET /values?readout=IC50&item= COc1cnc(N2CC[C@@H](Nc3cc(-n4ncc5cc(C#N)cnc54)ncc3C(=O)NC[C@@H](F)C(C)(C)O)C2)nc1 [Example 536]
## Output 8.1 nM

More entries:
## Input GET /values?readout=IC50&item= CC(C)(O)[C@H](F)CNC(=O)c1cnc(-n2ccc3cc(C#N)cnc32)cc1N[C@@H]1CCN(C(=O)CC(F)(F)F)C1 [Example 473]
## Output 4.1 nM

## Input GET /values?readout=IC50&item= CC(C)(O)[C@H](F)CNC(=O)c1cnc(-n2ccc3cc(C#N)cnc32)cc1N[C@@H]1CCN(c2ncc(F)cn2)C1 [Example 449]
## Output 1.5 nM

## Input GET /values?readout=IC50&item= C[C@@H](CO)Nc1cc(-n2ccc3cc(C#N)cnc32)ncc1C(=O)NCCNS(C)(=O)=O [Example 478]
## Output 4.7 nM

## Input GET /values?readout=IC50&item= CC(C)(O)[C@H](F)CNC(=O)c1cnc(-n2ncc3cc(C#N)cnc32)cc1NC1COC1 [Example 546]
## Output 3.7 nM

## Input GET /values?readout=IC50&item= CC[C@@H](CO)Nc1cc(-n2ncc3cc(Cl)cnc32)ncc1C(=O)NC[C@@H](F)C(C)(C)O [Example 589]
## Output 4.1 nM

## Input GET /values?readout=IC50&item= CC[C@@H](F)CNc1cc(-n2ncc3cc(Cl)cnc32)ncc1C(=O)NC[C@@H](F)C(C)(C)O [Example 602]
## Output 9.3 nM
